Ref: paper PMC8850458

PROTOCOL_DESCRIPTION: in vitro
STATED_CONDITIONS: human, WST assay viability relative to con = 100
MEASUREMENT_TYPE: viability at 1 µM (%)
Could you give me the number in %? Just the number is fine.

## Input Which viability at 1 µM value belongs to C=CC1(C)OC(=O)N(c2cc(Cl)cc(Cl)c2)C1=O (stereo not shown) [Vinclozolin] ?
## Output 89.8

* * *

PROTOCOL_DESCRIPTION: WST-based cell viability assay in ACHN cells
STATED_CONDITIONS: human, ACHN cells, ACHN, 1uM; duplicates; read-out: WST assay viability relative to con = 100
Each entry below carries its reported viability at 1 µM.
Could you give me the number in %? Just the number is fine.

> print(dat)
                                   compound   measurement.type  meas.value
1  CC(C)NCC(O)COc1ccc(OCc2ccccc2)c(OCCCc2ccccc2)c1 (centres unmarked)  viability at 1 µM         104

Please look at the following compound next.
## Input Which viability at 1 µM value belongs to `O[C@H](CNCCOCCOCCOc1ccc(-c2c(-c3ccccc3)nn3c(C(F)(F)F)cc(C(F)(F)F)nc23)cc1)COc1ccc(OCc2ccccc2)c(OCCCc2ccccc2)c1` ?
## Output 96.2
